- target entity: ghrelin receptor (Homo sapiens, UniProt Q92847)
- Sequence (Q92847 whole entry): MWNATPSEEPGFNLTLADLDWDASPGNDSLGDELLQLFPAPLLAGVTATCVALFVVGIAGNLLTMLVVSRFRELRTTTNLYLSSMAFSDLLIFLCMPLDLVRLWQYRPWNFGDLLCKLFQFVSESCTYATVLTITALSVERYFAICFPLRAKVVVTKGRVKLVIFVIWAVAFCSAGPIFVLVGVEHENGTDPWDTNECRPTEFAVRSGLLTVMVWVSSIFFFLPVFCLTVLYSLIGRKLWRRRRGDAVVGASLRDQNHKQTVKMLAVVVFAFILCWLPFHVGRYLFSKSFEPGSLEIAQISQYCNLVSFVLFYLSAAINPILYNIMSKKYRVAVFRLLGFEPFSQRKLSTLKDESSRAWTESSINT
- assay summary: Intracellular calcium influx in HEK293 cells overexpressing a ghrelin receptor
- test settings: read-out: EC50, concentration capable of inducing 50% intracellular calcium influx
EC50: recorded values
Unit nM implied. Number only.

CCCCCCCCCCn1cc(C(N)(CO)CO)nn1 [KARI101] ... 189

Consider the compound CCCCCCCCCCCCn1cc(C(N)(CO)CO)nn1 [KARI001] and give its measured EC50.
128
